# tested.on: Nuclear receptor subfamily 5 group A member 2 (Homo sapiens)
# method.description: LRH-1 (NR5A2) inverse agonists, retest, confirmation, cell-based, luminescence (AID 651613);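 also: HEK293T cells co-transfected with LRH-1 and StAR promoter luciferase reporter; 0% = vehicle wells and 100% = parental cells lacking receptor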
# details: cell-based LRH-1 luciferase reporter, inverse agonism; at 3.6 µM; hits give high values
reported.property: inhibition (%)

> print(dat)
                                   compound  reported.property  recorded.measurement
1  CC1CCC(C(C)C)C(OC(=O)Cn2c(-c3ccc(F)cc3)[n+](C)c3ccccc32)C1 (centres undefined)         inhibition                   108
2  CCNc1nc(NC(C)(C)C)nc(SC(C(C)=O)C(C)=O)n1         inhibition                  72.4
3  CN1c2ccccc2C(C)(C)C12C=Nc1c(cc(N3CCOCC3)c3ccccc13)O2 (centres undefined)         inhibition                  19.1
4  COC(=O)c1cn(NC(=O)c2cc([N+](=O)[O-])ccc2F)c(=O)c2ccccc12         inhibition                   102
5  COc1cccc2c1C(=O)c1c(O)c3c(c(O)c1C2=O)C[C@@](O)(C(C)=O)C[C@@H]3O[C@H]1C[C@H](N)[C@H](O)[C@H](C)O1         inhibition                   104
6  COc1ccc2c(c1)c[n+](C)c1c3cc(OC)c(OC)cc3ccc21         inhibition                  58.3
7       O=C(NC1CCCCC1)c1ccc([N+](=O)[O-])o1         inhibition                  54.9
8  CCCCn1c(NS(=O)(=O)c2ccccc2)c(S(=O)(=O)c2ccc(C)cc2)c2nc3ccccc3nc21         inhibition                  19.7
9    CCCNC(=O)c1sc2c(c1C(=O)Nc1ccccn1)CCCC2         inhibition                  47.1

###

# tested.on: Nuclear receptor coactivator 2 (Homo sapiens) (UniProt Q15596)
# Sequence (Q15596 whole entry, looked up): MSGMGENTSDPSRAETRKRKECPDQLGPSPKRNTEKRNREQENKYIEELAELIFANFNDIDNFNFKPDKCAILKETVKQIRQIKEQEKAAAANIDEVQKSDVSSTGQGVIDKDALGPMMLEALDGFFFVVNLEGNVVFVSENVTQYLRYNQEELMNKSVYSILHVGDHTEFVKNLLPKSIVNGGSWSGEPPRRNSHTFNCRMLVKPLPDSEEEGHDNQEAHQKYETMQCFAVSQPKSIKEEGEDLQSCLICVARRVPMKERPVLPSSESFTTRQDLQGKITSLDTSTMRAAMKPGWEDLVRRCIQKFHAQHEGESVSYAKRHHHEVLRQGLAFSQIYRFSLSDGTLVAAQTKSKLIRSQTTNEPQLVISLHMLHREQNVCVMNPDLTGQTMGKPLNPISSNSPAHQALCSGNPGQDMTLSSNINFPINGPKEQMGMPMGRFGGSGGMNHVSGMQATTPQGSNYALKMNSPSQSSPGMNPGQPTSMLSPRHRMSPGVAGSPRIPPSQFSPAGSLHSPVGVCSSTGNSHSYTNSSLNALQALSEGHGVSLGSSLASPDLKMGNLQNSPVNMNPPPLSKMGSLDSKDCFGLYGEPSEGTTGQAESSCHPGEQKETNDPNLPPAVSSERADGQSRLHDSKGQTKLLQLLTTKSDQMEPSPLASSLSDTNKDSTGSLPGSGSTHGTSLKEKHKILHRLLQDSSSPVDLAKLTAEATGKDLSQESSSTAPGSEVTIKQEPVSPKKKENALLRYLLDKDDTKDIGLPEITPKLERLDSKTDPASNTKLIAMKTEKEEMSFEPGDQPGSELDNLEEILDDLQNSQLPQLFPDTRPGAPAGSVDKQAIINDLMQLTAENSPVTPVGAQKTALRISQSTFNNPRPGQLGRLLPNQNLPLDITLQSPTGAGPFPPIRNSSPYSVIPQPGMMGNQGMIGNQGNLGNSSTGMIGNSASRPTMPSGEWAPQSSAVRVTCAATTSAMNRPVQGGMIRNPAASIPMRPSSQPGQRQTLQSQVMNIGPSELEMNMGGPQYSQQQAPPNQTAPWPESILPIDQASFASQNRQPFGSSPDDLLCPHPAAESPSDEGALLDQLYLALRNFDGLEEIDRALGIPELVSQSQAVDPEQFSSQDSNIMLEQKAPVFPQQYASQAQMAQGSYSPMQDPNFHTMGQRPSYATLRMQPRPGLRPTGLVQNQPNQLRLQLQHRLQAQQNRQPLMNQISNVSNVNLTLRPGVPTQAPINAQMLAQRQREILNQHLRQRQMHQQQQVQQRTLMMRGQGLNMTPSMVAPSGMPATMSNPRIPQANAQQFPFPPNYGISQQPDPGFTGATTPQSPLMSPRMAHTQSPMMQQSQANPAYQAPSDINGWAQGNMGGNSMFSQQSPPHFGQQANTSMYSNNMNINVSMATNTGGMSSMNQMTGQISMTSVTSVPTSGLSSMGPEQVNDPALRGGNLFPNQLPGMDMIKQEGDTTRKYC
# method.description: SRC2 coactivator transcriptional activity inhibitors, confirmation, cell-based, luminescence, HEK293, triplicate (AID 652008);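 also: 0% = DMSO-treated cells and 100% = Gossypol at 36 µM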
# details: HEK293 GAL4-SRC2 luciferase reporter, at 8.9 µM
Activity calls are given as the source filed them.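 The calls were made as follows: active = mean inhibition above 46.5%, the solvent-only control mean plus 3 SD; inactive = the rest.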
Labels: active, inactive

compound	tested.on	answer.label
CC(C)(C)c1ccc(C(=O)O/N=C(\N)c2ccccc2)cc1	Nuclear receptor coactivator 2 (Homo sapiens) (UniProt Q15596)	active
CNc1ccc2ncc(-c3ccc(OC)c(OC)c3)n2n1	Nuclear receptor coactivator 2 (Homo sapiens) (UniProt Q15596)	inactive
CC(=O)NCCOc1nc(N2CCCCC2)nc(N2CCCCC2)n1	Nuclear receptor coactivator 2 (Homo sapiens) (UniProt Q15596)	inactive
Cc1ccc(C2=[N+]([O-])C3(CCCCC3=O)N(O)C2(C)C)cc1 (stereo unspecified)	Nuclear receptor coactivator 2 (Homo sapiens) (UniProt Q15596)	inactive
CCOc1ccc(N2CC(C(=O)Nc3ccc4c(c3)OCCO4)CC2=O)cc1 (stereo unspecified)	Nuclear receptor coactivator 2 (Homo sapiens) (UniProt Q15596)	inactive
O=C(Nc1ccc(OCC(=O)N2CCOCC2)cc1)c1cncc(Br)c1	Nuclear receptor coactivator 2 (Homo sapiens) (UniProt Q15596)	inactive
O=C1C=CC2(C=C1)O[C@H](Cc1ccccc1)[C@@H](Cc1ccccc1)O2	Nuclear receptor coactivator 2 (Homo sapiens) (UniProt Q15596)	active
COc1ccc2c(=O)cc(-c3ccncc3)oc2c1OC	Nuclear receptor coactivator 2 (Homo sapiens) (UniProt Q15596)	inactive
Cc1ccc(C(=O)C(C(=O)/C=C/c2ccccc2)=C2SCCCS2)cc1	Nuclear receptor coactivator 2 (Homo sapiens) (UniProt Q15596)	active
O=C(COC(=O)CCCOc1ccc(Cl)cc1Cl)NCc1ccccc1	Nuclear receptor coactivator 2 (Homo sapiens) (UniProt Q15596)	inactive
Cc1ccc(/C=C2\SC(=S)N(CCCC(=O)NNC(=O)c3ccccc3O)C2=O)cc1	Nuclear receptor coactivator 2 (Homo sapiens) (UniProt Q15596)	active
O=C1NC(=S)N/C1=C\c1cccnc1	Nuclear receptor coactivator 2 (Homo sapiens) (UniProt Q15596)	inactive
CCOC(=O)c1c(C)nn(-c2ccc(NC(=O)c3c(C)noc3C)cc2)c1C	Nuclear receptor coactivator 2 (Homo sapiens) (UniProt Q15596)	active
CC(C)(C)c1ccc(Oc2ccc(NC(=O)C3CC=CCC3C(=O)O)cc2)cc1 (stereo unspecified)	Nuclear receptor coactivator 2 (Homo sapiens) (UniProt Q15596)	inactive
O=C(/C=C/c1cccnc1)/C=C/c1cccnc1	Nuclear receptor coactivator 2 (Homo sapiens) (UniProt Q15596)	inactive
COC(=O)COc1ccc(-c2nccc(-c3ccccn3)n2)cc1	Nuclear receptor coactivator 2 (Homo sapiens) (UniProt Q15596)	active
CC(=C/c1ccccc1)/C=N/n1c(-c2ccncc2)n[nH]c1=S	Nuclear receptor coactivator 2 (Homo sapiens) (UniProt Q15596)	inactive
Nc1ccc2oc(-c3cccc4ccccc34)nc2c1	Nuclear receptor coactivator 2 (Homo sapiens) (UniProt Q15596)	active
COc1ccc(CNC(=O)COC(=O)CCCOc2ccc(Cl)cc2Cl)cc1	Nuclear receptor coactivator 2 (Homo sapiens) (UniProt Q15596)	inactive
O=C(Nc1ccc2c(c1)OCCO2)C(c1ccnc2ccccc12)N1CCN(c2ccc(C(F)(F)F)cn2)CC1 (stereo unspecified)	Nuclear receptor coactivator 2 (Homo sapiens) (UniProt Q15596)	active
CC(=O)C1C(=O)c2c(cccc2[N+](=O)[O-])C1=Nc1ccc(S(N)(=O)=O)cc1 (stereo unspecified)	Nuclear receptor coactivator 2 (Homo sapiens) (UniProt Q15596)	inactive
COC(=O)[C@]12C[C@H](CC(=O)N3CCCCC3)C(=O)N(Cc3ccco3)C1=C[C@H](C(C)C)O[C@@H]2C1CC1	Nuclear receptor coactivator 2 (Homo sapiens) (UniProt Q15596)	inactive
O=C(CCCc1nc(-c2ccccc2Cl)no1)NC1CCCC1	Nuclear receptor coactivator 2 (Homo sapiens) (UniProt Q15596)	active
O=C(Nc1ncc([N+](=O)[O-])s1)c1ccc2c(c1)OCO2	Nuclear receptor coactivator 2 (Homo sapiens) (UniProt Q15596)	inactive
O=C(O)c1ccc(Nc2nc3c(s2)CCCC3)cc1	Nuclear receptor coactivator 2 (Homo sapiens) (UniProt Q15596)	inactive
CNC1=C(N(C(C)=O)c2ccc(Br)cc2)C(=O)c2ccccc2C1=O	Nuclear receptor coactivator 2 (Homo sapiens) (UniProt Q15596)	active
O=C(CCCN1C(=O)/C(=C/c2ccccc2Cl)SC1=S)NNC(=O)c1ccncc1	Nuclear receptor coactivator 2 (Homo sapiens) (UniProt Q15596)	active
Cc1cccc(C)c1Nc1nnc(SC(C)C(=O)Nc2c(C)n(C)n(-c3ccccc3)c2=O)s1 (stereo unspecified)	Nuclear receptor coactivator 2 (Homo sapiens) (UniProt Q15596)	inactive
COc1ccc(/C=C2\SC(=O)N(CCCC(=O)Nc3cc(Cl)ccc3C(=O)O)C2=O)cc1	Nuclear receptor coactivator 2 (Homo sapiens) (UniProt Q15596)	active
c1c2c(cc3sc(N4CCCCC4)nc13)OCCO2	Nuclear receptor coactivator 2 (Homo sapiens) (UniProt Q15596)	inactive
Cc1ccc(C(=O)NC(=S)Nc2ccc(-c3cc4ccccc4oc3=O)cc2)c(C)c1	Nuclear receptor coactivator 2 (Homo sapiens) (UniProt Q15596)	inactive
COc1ccc(N(C(=O)CCl)C(C(=O)NC2CCCCC2)c2cccnc2)cc1 (stereo unspecified)	Nuclear receptor coactivator 2 (Homo sapiens) (UniProt Q15596)	active
CC(C)(C)c1ccc(-c2n[nH]c(=S)n2C2CCCC2)cc1	Nuclear receptor coactivator 2 (Homo sapiens) (UniProt Q15596)	inactive
CN(c1ccc2nc3ccccc3c(=O)n2n1)C1CCCCC1	Nuclear receptor coactivator 2 (Homo sapiens) (UniProt Q15596)	active
O=C(/C=C/c1ccccc1)CC(O)(c1ccccc1)C(F)(F)F (stereo unspecified)	Nuclear receptor coactivator 2 (Homo sapiens) (UniProt Q15596)	inactive
Cc1ccc(/C=C2/SC(=S)N(CCCC(=O)Nc3ccc(O)cc3)C2=O)cc1	Nuclear receptor coactivator 2 (Homo sapiens) (UniProt Q15596)	active
COc1ccc(C(=O)NC(=C(Cl)Cl)S(=O)(=O)c2ccc(C)cc2)cc1	Nuclear receptor coactivator 2 (Homo sapiens) (UniProt Q15596)	inactive
CC(=O)OC1CCC2(C)C(CCC3C4CC=C(C(C)=O)C4(C)OC(=O)CC32)C1 (stereo unspecified)	Nuclear receptor coactivator 2 (Homo sapiens) (UniProt Q15596)	inactive
Cc1nc([N+](=O)[O-])c(C(=O)OCc2ccccc2F)n1C	Nuclear receptor coactivator 2 (Homo sapiens) (UniProt Q15596)	inactive
C[C@H]1O[C@@H](O[C@H]2[C@@H](O)C[C@H](O[C@H]3[C@@H](O)C[C@H](O[C@H]4CC[C@@]5(C)[C@H](CC[C@@H]6[C@@H]5C[C@@H](O)[C@]5(C)[C@@H](C7=CC(=O)OC7)CC[C@]65O)C4)O[C@@H]3C)O[C@@H]2C)C[C@H](O)[C@@H]1O	Nuclear receptor coactivator 2 (Homo sapiens) (UniProt Q15596)	active
CC(C)(CN1CCC(Cc2ccccc2)CC1)NS(=O)(=O)c1ccccc1	Nuclear receptor coactivator 2 (Homo sapiens) (UniProt Q15596)	inactive
